target of assay: MAPK14;MAPK11;MAPK12 (human)
procedure summary: Inhibition of p38 Kinase Activity
property label: IC50

// sample Cc1ccc(C(N)=O)cc1Nc1nc(N[C@H]2CCN(Cc3ccccc3C#N)C2)nc(N(C)CC(C)C)n1 , its IC50 was < 1000 nM

// sample CN(CCN(C)c1nc(NCCc2ccccc2)nc(Nc2ccc3ncsc3c2)n1)C(=O)CCC(=O)O , its IC50 was < 10000 nM

// sample Cc1ccc(C(N)=O)cc1Nc1nc(NCC2CCC3CC2C3(C)C)nc(NC2CCNC2)n1 (stereo not drawn) , its IC50 was < 1000 nM

// sample Cc1ccc(C(=O)NC2CCCCC2)cc1Nc1nc(N[C@H]2CCNC2)nc(N(C)CC(C)(C)C)n1 , its IC50 was < 1000 nM

// sample C=CCN1CC[C@H](Nc2nc(Nc3cc(C(=O)NC(C)C)ccc3C)nc(N(C)CC3CCCC3)n2)C1 , its IC50 was < 1000 nM

// sample Cc1cc(Cl)c(C(N)=O)cc1Nc1nc(N[C@H]2CCNC2)nc(N(C)CC(C)(C)C)n1 , its IC50 was < 1000 nM

// sample CONC(=O)c1ccc(C)c(Nc2nc(N(C)CC(C)(C)C)nc(N3CCCCC3)n2)c1 , its IC50 was < 1000 nM

// sample Cc1ccc(C(N)=O)cc1Nc1nc(N[C@H]2CCN(CCC#N)C2)nc(N(C)CC(C)(C)C)n1 , its IC50 was < 1000 nM

// sample CONC(=O)c1ccc(C)c(Nc2nc(F)cc(N(C)CC(C)(C)C)n2)c1 , its IC50 was < 1000 nM

// sample CC(=O)NCc1ccc(C)c(Nc2nc(N[C@H]3CCNC3)nc(N(C)CC(C)(C)C)n2)c1 , its IC50 was < 1000 nM

// sample Cc1ccc(C(N)=O)cc1N(C)c1nc(NC2CCCC2)nc(N[C@H]2CCNC2)n1 , its IC50 was < 1000 nM

// sample CONC(=O)c1ccc(C)c(Nc2nc(NCc3ccc(Cl)c(Cl)c3)nc(N(C)CC(C)(C)C)n2)c1 , its IC50 was < 1000 nM

// sample CC(C)(Cc1ccccc1)Nc1nc(Nc2ccc3ncsc3c2)nc(N2CCNCC2)n1 , its IC50 was < 10000 nM

// sample CONC(=O)c1ccc(C)c(Nc2nc(N[C@H]3CNC(=O)C3)nc(N(C)CC(C)(C)C)n2)c1 , its IC50 was < 1000 nM

// sample CNC1CCN(c2cc(NCCOC(C)C)nc(-n3cnc4ccc(C)cc43)n2)C1 (stereo not drawn) , its IC50 was < 10000 nM

// sample Cc1ccc(C(N)=O)cc1Nc1nc(NCCc2ccc(Cl)cc2)nc(N[C@H]2CCNC2)n1 , its IC50 was < 1000 nM

// sample Cc1ccc(C(N)=O)cc1Nc1nc(NC[C@@H]2CC[C@H]3C[C@@H]2C3(C)C)nc(N[C@@H]2CCNC2)n1 , its IC50 was < 1000 nM

// sample CCCCNc1nc(Nc2cc(C(=O)NOC)ccc2C)nc(N(C)CC(C)(C)C)n1 , its IC50 was < 1000 nM
